System: MDA-MB-231 cells
Experiment: Drug sensitivity (MTS), MDA-MB-231
Assay type: cell-based
Conditions: Homo sapiens, MDA-MB-231, 48 h, doxorubicin with anti-PN peptide, PN-transfected MDA-MB-231, 48 h, MTS; P-value = 0.002
outcomeMeasure: pIC50
pIC50 field: float, defined as -log10 of concentration (mol/L).

Recorded result, "COc1cccc2c1C(=O)c1c(O)c3c(c(O)c1C2=O)C[C@@](O)(C(=O)CO)C[C@@H]3O[C@H]1C[C@H](N)[C@H](O)[C@H](C)O1" , pIC50: 6.10

###

Test system: MDA-MB-231 cells
Assay: Drug sensitivity (MTS), MDA-MB-231
Type: cell-based
Settings: Homo sapiens, MDA-MB-231, 48 h, doxorubicin, rPN-treated MDA-MB-231, 48 h, MTS; P-value = 0.024
outcomeMeasure: IC50 (µM)
Write down the numeric answer in µM and omit the unit.

// IC50 value for "COc1cccc2c1C(=O)c1c(O)c3c(c(O)c1C2=O)C[C@@](O)(C(=O)CO)C[C@@H]3O[C@H]1C[C@H](N)[C@H](O)[C@H](C)O1" : 1.99
